Value source: ChEMBL document CHEMBL3988442

tested on: Wolbachia pipientis; assay: Anti-Wolbachia Cell-Based Screen; assay type: functional; parameters: scale not given: in the data most compounds retested in dose-response had high values; details: 5 µM
In all, about 48,000 compounds went through this assay and about 13,000 (27%) showed an effect of 50% or more. The list shows a part of the results.
Parameter: Percent Effect (%)

* CCn1cc(NC(=O)NCC(c2cccs2)N(C)C)cn1 (stereo not given) | -11.74
* NC(=O)C1CCCN1Cc1ccccc1NC(=O)Cc1cccs1 (stereo not given) | -13.98
* CCn1cc(NC(=O)NCC(C)(C)N2CCc3ccccc3C2)cn1 | 107.6
* CCn1cc(NC(=O)NCC(O)CN2CCc3ccccc3C2)cn1 (stereo not given) | 9.53
* Cc1cc(-c2nn(C)c(Cl)c2CN2CCN(C)C(C(=O)O)C2)no1 (stereo not given) | -9.468
